B1: glmS ribozyme (parent)
chain: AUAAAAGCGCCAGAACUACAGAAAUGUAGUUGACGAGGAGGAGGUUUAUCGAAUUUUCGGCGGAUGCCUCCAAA

# Variants of: B1
# measurementProtocol: self-cleavage kobs at 640 uM GlcN6P; higher = faster cleavage; RNA array
# experimentalParameters: with glucosamine-6-phosphate
Variants at the floor of the assay were thinned out.
recordedMetric: self-cleavage kobs at 640 uM GlcN6P

• C16A C34A = < 1e-05 s⁻¹
• C8G G40C U49C C61A = < 1e-05 s⁻¹
• A6G A15C U45A G59A = < 1e-05 s⁻¹
• U57C G63A = < 1e-05 s⁻¹
• G9C G37A = < 1e-05 s⁻¹

Q: Name the recorded self-cleavage kobs at 640 uM GlcN6P of the item U31A U55A in your answer.
A: 0.00452 s⁻¹

Q: Name the recorded self-cleavage kobs at 640 uM GlcN6P of the item G41U A53C in your answer.
A: 5.64e-05 s⁻¹

Q: Name the recorded self-cleavage kobs at 640 uM GlcN6P of the item A39U U56G in your answer.
A: 0.0021 s⁻¹

Q: Name the recorded self-cleavage kobs at 640 uM GlcN6P of the item C8U G13U A14U in your answer.
A: < 1e-05 s⁻¹
